Source listed as patent US20230227411A1.

# IC50 per entry
- assay.target: human cGAS (residues 161-522) (Homo sapiens, UniProt Q8N884)
- Construct: Recombinantly expressed purified human cGAS (residues 161-522) was used at 25 nM
- Sequence (Q8N884 161-522): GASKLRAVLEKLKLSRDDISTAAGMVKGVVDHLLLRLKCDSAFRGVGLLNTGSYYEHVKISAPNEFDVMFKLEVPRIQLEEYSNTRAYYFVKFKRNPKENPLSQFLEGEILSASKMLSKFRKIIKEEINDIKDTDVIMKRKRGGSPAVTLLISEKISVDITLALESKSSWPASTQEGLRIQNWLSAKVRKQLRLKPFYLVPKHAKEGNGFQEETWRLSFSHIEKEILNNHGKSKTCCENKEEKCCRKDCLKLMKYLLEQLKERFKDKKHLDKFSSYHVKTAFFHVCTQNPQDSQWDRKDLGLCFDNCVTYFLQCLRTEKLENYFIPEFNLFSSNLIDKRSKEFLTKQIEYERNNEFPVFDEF
- experiment.summary: Malachite Green assay to measure cGAS activity
- condition: coupled enzymatic assay, phosphate detection by Malachite Green; 25 nM cGAS, 80 μM ATP, 80 μM GTP, 100 nM ISD, 4 hour at RT
Could you give me the number in nM? Just the number is fine.

Reference set (6 entries):
Cc1ccc(-c2cc(C(=O)O)c3c(c2)ncn3Cc2cccc(Cl)c2)c(Cl)c1 : 2590
Cc1ccc(-c2cc(C(=O)O)c3c(c2)ncn3CCc2ccccc2)c(Cl)c1 : 1860
Cc1ccc(-c2cc(C(=O)O)c3c(c2)ncn3Cc2ccncc2)c(Cl)c1 : 870
Cc1ccc(-c2cc(C(=O)O)c3c(c2)ncn3CCCNS(C)(=O)=O)c(Cl)c1 : 1340
CCn1cnc2cc(-c3ccc(C)cc3Cl)cc(C(=O)O)c21 : 2810
Cc1ccc(-c2cc(C(=O)O)c3c(c2)ncn3CCN(C)C)c(Cl)c1 : 2020

Query block: # query: IC50 of entry CCn1cnc2cc(-c3cc(F)c(C)cc3Cl)cc(C(=O)O)c21
Result block: 1930

Query block: Dear colleague, I am looking for the recorded IC50 of the following compound: COCCn1cnc2cc(-c3ccc(C)cc3Cl)cc(C(=O)O)c21
Result block: 3040

Query block: I would be grateful if you could share the reported IC50 for Cc1ccc(-c2cc(C(=O)O)c3c(c2)ncn3C2CC2)c(Cl)c1 .
Result block: 4790
